Record form. Attribute: mortality at 500 ppm. Fill in for each entry.
- Test system: Musca domestica (houseflies - adults)
- RUN DESCRIPTION: Contact test, houseflies - adults (MD), Cotton wool/sugar
- Format: in vivo
- CONDITIONS: 24 h, 500 ppm, 1 day, read-out: MD grading of mortality

Solved entries (count: 5):
# COMPOUND, TARGET OR TEST SYSTEM, mortality at 500 ppm
rows = [
    ("Fc1ccc(CCCC(c2ccc(OC(F)(F)F)cc2)C(F)(F)F)cc1Cc1ccccc1 (centres unmarked)", "Musca domestica (houseflies - adults)", "80 to 100%"),
    ("FC(F)(F)Oc1ccc(C(=CC=Cc2cccc(Oc3ccccc3)c2)C(F)(F)Cl)cc1", "Musca domestica (houseflies - adults)", "< 50%"),
    ("CCOc1c(F)cc(C(CCCc2ccc(F)c(Oc3ccccc3)c2)C(F)(F)F)cc1F (racemic)", "Musca domestica (houseflies - adults)", "80 to 100%"),
    ("CCOc1ccc(C(=CC=Cc2cccc(Oc3ccccc3)n2)C(F)(F)F)cc1", "Musca domestica (houseflies - adults)", "< 50%"),
    ("CCOc1ccc(C(CCCc2cccc(Oc3ccccc3)c2)C(F)F)cc1 (racemic)", "Musca domestica (houseflies - adults)", "80 to 100%"),
]

Parameter requested: mortality at 500 ppm. Apply to each item below.
1. OC(CCCc1cccc(Oc2ccccc2)c1)(c1ccc(OC(F)(F)F)cc1)C(F)(F)F (racemic)
2. CCOc1ccc(C(CCCc2c(F)c(F)c(F)c(F)c2F)C(F)(F)F)cc1 (racemic)
3. COc1ccc(C(CCCc2cccc(Oc3ccccc3)c2)C(F)(F)F)cc1 (racemic)

**Result**
["< 50%", "50 to 79%", "80 to 100%"]
